Biological target: T1, KAE1;BUD32 N58R;CGI121;PCC1 (Arabidopsis thaliana;Arabidopsis …, UniProt O49653;Q94K14;Q6NMZ4;Q8GWD7 1-353;1-226;1-172;1-96, |N58R||)
T1 sequence 1: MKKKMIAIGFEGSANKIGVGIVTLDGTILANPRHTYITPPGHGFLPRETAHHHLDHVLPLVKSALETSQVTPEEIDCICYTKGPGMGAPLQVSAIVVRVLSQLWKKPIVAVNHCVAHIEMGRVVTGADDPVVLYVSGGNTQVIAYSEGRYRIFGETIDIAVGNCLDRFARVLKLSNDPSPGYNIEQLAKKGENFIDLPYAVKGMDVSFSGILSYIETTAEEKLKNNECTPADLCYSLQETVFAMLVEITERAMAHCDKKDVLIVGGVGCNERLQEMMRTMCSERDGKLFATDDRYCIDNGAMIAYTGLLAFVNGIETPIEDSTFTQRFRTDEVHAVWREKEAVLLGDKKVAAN
T1 sequence 2: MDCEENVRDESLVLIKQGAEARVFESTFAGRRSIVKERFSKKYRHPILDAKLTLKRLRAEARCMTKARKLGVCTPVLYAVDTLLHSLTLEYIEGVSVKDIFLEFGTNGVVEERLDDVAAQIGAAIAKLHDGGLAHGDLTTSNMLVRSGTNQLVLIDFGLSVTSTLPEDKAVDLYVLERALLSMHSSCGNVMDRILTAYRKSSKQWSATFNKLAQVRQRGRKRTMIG
T1 sequence 3: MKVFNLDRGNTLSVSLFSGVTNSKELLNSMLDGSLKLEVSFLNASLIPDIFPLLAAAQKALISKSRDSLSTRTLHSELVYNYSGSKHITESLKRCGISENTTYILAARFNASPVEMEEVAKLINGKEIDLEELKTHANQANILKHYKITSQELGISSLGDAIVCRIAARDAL
T1 sequence 4: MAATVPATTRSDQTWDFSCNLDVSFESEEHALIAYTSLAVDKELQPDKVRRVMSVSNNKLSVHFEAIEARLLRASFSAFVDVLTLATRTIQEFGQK
Experiment: MST; MST: 20 mM PBS pH 7.5, 300 mM NaCl, 0.05% Tween 20, 25 C, 50 nM RNA; EMSA: 20 mM Tris-HCl pH 7.5, 300 mM NaCl, 5 mM b-mercaptoethanol, 20% glycerol, agarose gel in Tris-glycine pH 8.0 (8.5 for FAM-RNA), 4 C
Settings: protein: recombinant;recombinant;recombinant;recombinant; tags: none (6His on partner PCC1);;6His (C-term);6His (C-term); chain copies: 2;2;2;2; label: 5' 6-FAM; tRNA cloverleaf
Experimental Readout: pKd
Note on pKd: it is the negative log10 of concentration, concentration in mol/L.

**Q:** Returns the measured pKd for the input binder. Input: 5'-6FAM-tRNAArgCCU (structured_RNA) RNA: GCGCCUGUAGCUCAGUGGAUAGAGCGUCUGUUUCCUAAGCAGAAGGUCGUAGGUUCGACCCCUACCUGGCGCGCCA
**A:** 5.01
